- Tested Target: human CD74, naturally expressed on cells (Raji, Daudi, M4A4, NCI-H747 cells; human tonsil tissue) (human) (UniProt P04233)
- Assay Overview: cell-based or functional assay
Property Measured: % kill of Daudi cells at 10 µg/mL (%)
Kindly provide the numeric value in % only, without the unit symbol.

Input: Any idea what % kill of Daudi cells at 10 µg/mL was measured for HuMab-CD74-005-mcMMAF (antibody, IgG1, V domains shown, drug-linker mcMMAF alkylated to the cysteines of the reduced antibody (DAR 3.9-4.0), Antibody-drug conjugate of HuMab-CD74-005 (IgG1,kappa); also called mcMMAF-conjugate of HuMab-CD74-005) VH: QVQLVESGGGVVQPGRSLRLSCAASGFTFSSYAMHWVRQAPGKGLEWVAVISYDGSNKYYADSVKGRFTISRDNSKNTLYLQMNSLRAEDTAVYYCASGRYYGSGSYSSYFDYWGQGTLVTVSS VL: DIQMTQSPSSLSASVGDRVTITCRASQGISSWLAWFQQKPEKAPKSLIYAASSLQSGVPSRFSGSGSGTDFTLTISSLQPEDFATYYCQQYNSYPLTFGGGTKVEIK ?
Output: 90

Cited source for all entries: patent US20170173151A1
